biological target: Voltage-gated potassium channel subunit beta-2 (Rattus norvegicus) (UniProt P62483); test: KvBeta positive modulators, primary screen, biochemical, NADPH fluorescence (AID 623); conditions: Recombinant KvBeta, NADPH fluorescence decrease slope, 10 min; at 10 µM; hits give low values;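 also: fluorescence intensity change per second fitted from 20 to 320 s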
Sequence (P62483 whole entry, looked up): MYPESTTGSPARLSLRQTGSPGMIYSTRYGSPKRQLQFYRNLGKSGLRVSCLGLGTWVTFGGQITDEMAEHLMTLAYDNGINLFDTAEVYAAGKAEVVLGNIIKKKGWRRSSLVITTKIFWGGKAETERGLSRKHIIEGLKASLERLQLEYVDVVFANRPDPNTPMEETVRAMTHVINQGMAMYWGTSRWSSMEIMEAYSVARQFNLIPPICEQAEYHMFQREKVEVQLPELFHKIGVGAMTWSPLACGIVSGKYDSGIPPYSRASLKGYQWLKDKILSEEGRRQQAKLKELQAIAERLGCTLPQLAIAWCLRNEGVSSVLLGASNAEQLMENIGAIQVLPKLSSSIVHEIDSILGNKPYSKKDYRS
reportedEndpoint: NADPH fluorescence slope

>>> measurednumber("CCCc1nnc2n1N=C(c1ccc(-c3cc(Cl)ccc3Cl)o1)CS2")
"-5.1e-05"
>>> measurednumber("CCC(C)(C(=O)NC1CCCCC1)N(Cc1ccco1)C(=O)c1ccc2c(c1)OCO2 (stereo unspecified)")
"-7.4e-06"
>>> measurednumber("Cc1ccc(C)c(S(=O)(=O)C(C#N)c2nc3ccccc3nc2N2CC(C)OC(C)C2)c1 (stereo unspecified)")
"-1.6e-06"
>>> measurednumber("COC(=O)CSc1nc(N)nc(C)c1Br")
"-3.4e-05"
>>> measurednumber("Cc1cc(C)n(-c2nc3c(c(=O)n(Cc4ccc(Cl)c(Cl)c4)c(=O)n3C)n2C)n1")
"-1.8e-05"
>>> measurednumber("CCOn1c(=O)c(=O)n(OCc2ccccc2)c2ccccc21")
"-5.2e-05"
>>> measurednumber("O=C(CCC(=O)c1cccs1)NCc1ccccc1")
"-5.1e-06"
>>> measurednumber("CCC1(NC(C)=O)CC2CC1CC2NC(C)=O (stereo unspecified)")
"-1.3e-05"
>>> measurednumber("CN1CCc2nc(SCCOc3ccccc3)c(C#N)cc2C1")
"-9.3e-07"
>>> measurednumber("CCOc1ccccc1C(=O)NCCCCCC(=O)O")
"-9.6e-05"
>>> measurednumber("CC(=O)c1cc(F)c(N2CCN(C(=O)Cc3ccccc3)CC2)cc1C")
"-6.1e-05"
>>> measurednumber("CCOC(=O)c1cccc(NC(=O)CNS(=O)(=O)c2cccs2)c1")
"-4.4e-05"
>>> measurednumber("CCCCS(=O)(=O)NC1=NCN(C2CCN(Cc3ccccc3)CC2)CN1")
"-9.6e-05"
>>> measurednumber("Cc1cc(=O)oc(C)c1C(=O)Nc1ccc2nsnc2c1")
"-2.8e-05"
>>> measurednumber("CC1(C)Cc2nc3sc4c(N(CCO)CCO)ncnc4c3cc2CO1")
"-1.1e-05"
>>> measurednumber("CCOC(=O)CNC(=O)CNC(=O)c1ccc(OC)cc1")
"-5.5e-05"
>>> measurednumber("COC(=O)CCCCCc1ccc(C(C)=O)s1")
"-3.1e-05"
>>> measurednumber("Cc1c(NC(=O)C(C)OC(=O)c2cc3c4ccccc4n(C)c3s2)c(=O)n(-c2ccccc2)n1C (stereo unspecified)")
"-3.8e-06"
>>> measurednumber("CC(C)OC(=O)c1c2nc3ccccc3nc2n2c1[nH]c(=O)c1ccccc12")
"2e-05"
>>> measurednumber("CCN1CCN(CCCNC(=O)C2c3ccccc3C(=O)N(C)C2c2ccc(OC)cc2)CC1 (stereo unspecified)")
"-1.6e-06"
>>> measurednumber("Cc1cc(N2C(=O)C(=O)/C(=C(/O)c3ccc(F)cc3)C2c2cccc(Br)c2)no1 (stereo unspecified)")
"-4.6e-05"
>>> measurednumber("COC(=O)CCC(=O)Nc1cccc(Br)c1")
-0.000246
>>> measurednumber("O=C(c1ccco1)N1CCN(CCCCN2C(=O)c3ccccc3C2=O)CC1")
"4.7e-06"
>>> measurednumber("O=C(NCCCN1CCOCC1)C1(c2ccccc2)CCOCC1")
"-2.1e-05"
>>> measurednumber("Cc1sc(-n2c(C)cc(/C=N/n3cnnc3)c2C)c(C#N)c1C")
"-9.2e-05"
>>> measurednumber("COc1cccc(OC)c1C(=O)Nc1nc2ccc(S(C)(=O)=O)cc2s1")
"-1e-05"
>>> measurednumber("CCCSc1nnc(NC(=O)Nc2ccccc2)s1")
"-5.4e-05"
>>> measurednumber("COc1ccccc1-c1nnc2n1N=C(c1ccc(O)c(O)c1)CS2")
"-1.7e-05"
>>> measurednumber("Cc1ccc2nc(NC(=O)C3CCCN(S(=O)(=O)c4cnc[nH]4)C3)sc2c1 (stereo unspecified)")
"-6.7e-06"
>>> measurednumber("CCCn1c(SCC(=O)Nc2ccccc2C(=O)OC)nc2c1c(=O)n(C)c(=O)n2C")
"-7.6e-05"
>>> measurednumber("CNC(=O)CN(c1ccc(C(C)C)cc1)S(C)(=O)=O")
"1.3e-05"
>>> measurednumber("CCOC(=O)C1C2C=CC3(CN(c4cccc(Cl)c4)C(=O)C13)O2 (stereo unspecified)")
"9e-06"
>>> measurednumber("CCOC(=O)c1ccc(NC(=O)CCc2nc(-c3cccc(C)c3)no2)cc1")
"-6.8e-05"
>>> measurednumber("O=C(CCc1nc2ccccc2[nH]1)Nc1ccc2c(c1)OCO2")
"1.4e-05"
>>> measurednumber("Cc1nnc(N2C(=O)C(O)=C(C(=O)c3ccco3)C2c2ccc(F)cc2)s1 (stereo unspecified)")
"-4.6e-05"
>>> measurednumber("CCN(CC)S(=O)(=O)c1ccc(NC(=O)Cn2cnc3ccccc3c2=O)cc1")
-0.000135
>>> measurednumber("Cc1oc(-c2cccc(Cl)c2)nc1CN1CCC(C(=O)N2CCN(c3ccccc3F)CC2)CC1")
"-2.2e-05"
>>> measurednumber("CC(=O)NCCOc1cccc(OCCNC(C)=O)c1")
"4e-05"
>>> measurednumber("COc1ccccc1CNC(=O)Nc1cccs1")
"8.3e-06"
>>> measurednumber("N#Cc1cc2ccccc2nc1SCC(=O)Nc1ccccc1N1CCOCC1")
"-2.6e-05"
>>> measurednumber("Cc1nnc2n(C3CCCCC3)c(=O)c3c4c(sc3n12)COC(C)(C)C4")
"7.7e-06"
>>> measurednumber("COc1ccc(-c2ccc(-c3nnn(CC(C)=O)n3)cc2)cc1")
"-4.2e-05"
>>> measurednumber("CCCn1nnc(NC(=O)c2cc(Br)cc(Br)c2OC)n1")
-0.000102
>>> measurednumber("CCOC(=O)c1cnn(-c2sc(C(=O)OCC)c(C)c2C(=O)OCC)c1N")
"2.2e-05"
>>> measurednumber("CCN(CC)C(=O)CSc1nnc(-c2cc(OC)cc(OC)c2)o1")
"-4.5e-05"
>>> measurednumber("CCCCC(=O)NCCc1cc2ccc(OC)cc2[nH]c1=O")
-0.000398

Where do the numbers come from? From PubChem BioAssay.
